Biological target: thrombin
Experiment: enzyme inhibition, selectivity profile, mixed model fit
measure: Ki (nM)
Entry rule: numbers only, all in nM.

Would you kindly share the measured Ki for RQAR (modifications not checked) [RQAR-ketobenzothiazole] ?
637
